Let's look at some molecules and their measured solubility.
TEST_METHOD_NOTES: Solubility of the compound in water at pH 7.4
Type: physicochemical

[
  {
    "TEST_SMILES": "COc1cc(O)c2c(=O)cc(-c3ccc(N4CCN(C)CC4)cc3)oc2c1N1CCNCC1",
    "solubility, µg/mL": 450
  },
  {
    "TEST_SMILES": "COc1cc(O)c2c(=O)cc(-c3ccc(N4CCN(C)CC4)cc3)oc2c1C1=CCN(C)CC1",
    "solubility, µg/mL": 120
  }
]

====

IC50 values for the compounds below.
TARGET_OR_SYSTEM: Cyclin-dependent kinase 4/cyclin D1 (Homo sapiens)
Sequence (P11802 whole entry): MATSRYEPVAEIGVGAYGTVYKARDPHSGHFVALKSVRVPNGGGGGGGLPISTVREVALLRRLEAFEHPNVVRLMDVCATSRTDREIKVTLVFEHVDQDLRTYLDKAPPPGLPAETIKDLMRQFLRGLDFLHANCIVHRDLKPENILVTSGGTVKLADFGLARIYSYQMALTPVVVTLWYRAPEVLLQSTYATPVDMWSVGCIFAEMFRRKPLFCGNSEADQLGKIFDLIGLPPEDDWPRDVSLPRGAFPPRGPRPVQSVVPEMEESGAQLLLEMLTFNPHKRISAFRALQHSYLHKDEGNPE
Sequence (P24385 whole entry, further chain): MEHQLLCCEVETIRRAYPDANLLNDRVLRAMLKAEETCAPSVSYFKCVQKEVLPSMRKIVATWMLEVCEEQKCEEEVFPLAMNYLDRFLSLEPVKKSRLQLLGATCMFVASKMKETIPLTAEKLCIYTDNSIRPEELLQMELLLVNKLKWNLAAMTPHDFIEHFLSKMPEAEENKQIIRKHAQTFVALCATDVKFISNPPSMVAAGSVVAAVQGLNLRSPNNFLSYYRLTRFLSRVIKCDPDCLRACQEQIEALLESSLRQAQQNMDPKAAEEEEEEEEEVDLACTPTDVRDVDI
TEST_METHOD_NOTES: Inhibition of CDK4/CyclinD1 (unknown origin) by ADP-Glo assay

[
  {
    "TEST_SMILES": "COc1cc(O)c2c(=O)cc(-c3ccc(N4CCN(C)CC4)cc3)oc2c1C1=CCN(C)CC1",
    "UNIT_TAG": "nM",
    "IC50": 53
  },
  {
    "TEST_SMILES": "COc1cc(O)c2c(=O)cc(-c3ccc(N4CCN(C)CC4)cc3)oc2c1N1CCNCC1",
    "UNIT_TAG": "nM",
    "IC50": 311
  }
]

These entries and their values trace back to ChEMBL document CHEMBL5634084.
